- EXPERIMENT_NOTES: % protein (toxicity estimate, Bradford) after transfection
- Type: cell-based, mouse
- APPLIED_CONDITIONS: mouse, nih-3t3 cells; 16 μg lipid; 2 μg pSV2CAT; 6 h OPTI MEM serum-free
ENDPOINT_NAME: viability at 6 h (%)
Value expressed in %; do not type the unit.

Prompt: Which viability at 6 h is listed for CCCCCCCC/C=C\CCCCCCCCOCC(C[N+](C)(C)CCBr)OCCCCCCCC/C=C\CCCCCCCC (stereo not shown) ?
Response: 35

###

- EXPERIMENT_NOTES: % protein (toxicity estimate, Bradford) after transfection
- Type: cell-based
- APPLIED_CONDITIONS: human, hela-s3 cells, 6 μg lipid, DMEM, 5% FBS, 2 μg pSV2CAT
ENDPOINT_NAME: viability at 6 h

Prompt: Which viability at 6 h is listed for CCCCCCCC/C=C\CCCCCCCCOCC(C[N+](C)(C)CCBr)OCCCCCCCC/C=C\CCCCCCCC (stereo not shown) [Compound 3] ?
Response: 54%

###

- EXPERIMENT_NOTES: % protein (toxicity estimate, Bradford) after transfection
- Type: cell-based, human
- APPLIED_CONDITIONS: human, keratinocytes; 10 μg lipid; 2 μg pSV2CAT; 6 h
ENDPOINT_NAME: viability at 6 h
Give me the value, and tack the unit on after it.

Prompt: Which viability at 6 h is listed for CCCCCCCC/C=C\CCCCCCCCOCC(C[N+](C)(C)CCBr)OCCCCCCCC/C=C\CCCCCCCC (stereo not shown) [Compound 3] ?
Response: 42%

###

- EXPERIMENT_NOTES: % protein (toxicity estimate, Bradford) after transfection
- Assay type: cell-based, human
- APPLIED_CONDITIONS: human, jurkat cells, 15 μg lipid; 2 μg pCMVCAT; 6 h RPMI1640
Structures can show the parent of a compound that is named as a salt.
ENDPOINT_NAME: viability at 6 h (%)
Value expressed in %; do not type the unit.

Prompt: Which viability at 6 h is listed for CCCCCCCC/C=C\CCCCCCCCOCC(C[N+](C)(C)CCNC(=O)C(CCCNCCCN)NCCCN)OCCCCCCCC/C=C\CCCCCCCC (stereo not shown) [Compound 8, (trifluoroacetate) salt] ?
Response: 47

###

The following compounds are shown together with reported viability at 6 h values.
- EXPERIMENT_NOTES: % protein (toxicity estimate, Bradford) after transfection
- Assay type: cell-based, human
- APPLIED_CONDITIONS: human, jurkat cells, 20 μg lipid; pSV2CAT; 6 h OPTIMEM
Value expressed in %; do not type the unit.

[[record]]
compound = "CCCCCCCC/C=C\\CCCCCCCCOCC(C[N+](C)(C)CCNCCCN)OCCCCCCCC/C=C\\CCCCCCCC (centres unmarked)"
endpoint_name = "viability at 6 h"
value_reported = 93


Next compound, viability at 6 h to be filled in.
Prompt: Which viability at 6 h is listed for CCCCCCCC/C=C\CCCCCCCCOCC(C[N+](C)(C)CCNCCCNCCCCNCCCN)OCCCCCCCC/C=C\CCCCCCCC (centres unmarked) ?
Response: 100

###

- EXPERIMENT_NOTES: % protein (toxicity estimate, Bradford) after transfection
- Assay type: cell-based
- APPLIED_CONDITIONS: human, hela-s3 cells, 12 μg lipid, OPTIMEM I, 0% FBS, 2 μg pSV2CAT
ENDPOINT_NAME: viability at 6 h (%)
Value expressed in %; do not type the unit.

Prompt: Which viability at 6 h is listed for CCCCCCCC/C=C\CCCCCCCCOCC(C[N+](C)(C)CCBr)OCCCCCCCC/C=C\CCCCCCCC (stereo not shown) [Compound 3] ?
Response: 43
